# maps each entry to its CC50 at 120 h
Assay overview: Cytotoxicity against human MT2 cells after 5 days by MTT assay
Assay type: cell-based
Measurement setup: MT2 cells
Give a bare numeral; the unit µM is implied.

Below: 2 compounds and their reported CC50 at 120 h.
{"Compound": "Cc1cn([C@H]2C=C[C@@H](CO)O2)c(=O)[nH]c1=O [STAVUDINE]", "Quantity measured": "CC50 at 120 h", "Obs value": 2.2}
{"Compound": "Nc1ccn([C@H]2CC[C@@H](CO)O2)c(=O)n1 [ZALCITABINE]", "Quantity measured": "CC50 at 120 h", "Obs value": 4}

### Prompt Tell me CC50 at 120 h reported for Cc1cc(C)c(Nc2ccnc(Nc3ccc(C#N)cc3)n2)c(C)c1 [DAPIVIRINE]
### Response 1.9
